# Tested on: DoHH2 cells (B-cell lymphoma)
# protocol-summary: Alamar blue viability assay, DoHH2 cells
# Assay type: cell-based
# stated-conditions: Alamar blue, 24 hours; read-out: Cytotoxicity IC50, DoHH2
Where a SMILES comes first, the peptide text is derived from it. [ ]: non-standard residue; d: D form.
Please respond with reported IC50 for every item in the list.

Form: Entry = CC[C@H](C)[C@H](NC(=O)CNC(=O)[C@H](CO)NC(=O)[C@H](CC(C)C)NC(=O)[C@@H](N)Cc1ccccc1)C(=O)N[C@H](C(=O)NCC(=O)N[C@@H](CCSC)C(=O)N[C@@H](CC(C)C)C(=O)NCC(=O)N[C@@H](CCCCN)C(=O)N[C@@H](CC(C)C)C(=O)N[C@@H](Cc1ccccc1)C(N)=O)C(C)C [peptide 1, F-L-S-G-I-V-G-M-L-G-K-L-F, reference compound] (H-FLSGIVGMLGKLF-NH2) | System = DoHH2 cells (B-cell lymphoma) | IC50 = ____
> 100 µM

Form: Entry = CC[C@H](C)[C@H](NC(=O)CNC(=O)[C@H](CO)NC(=O)[C@H](CC(C)C)NC(=O)[C@@H](N)Cc1ccccc1)C(=O)N[C@H](C(=O)NCC(=O)N[C@@H](CCSC)C(=O)N[C@@H](CC(C)C)C(=O)N[C@H](C)C(=O)N[C@@H](CCCCN)C(=O)N[C@@H](CC(C)C)C(=O)N[C@@H](Cc1ccccc1)C(N)=O)C(C)C [peptide 4, F-L-S-G-I-V-G-M-L-a-K-L-F] (H-FLSGIVGML[dA]KLF-NH2) | System = DoHH2 cells (B-cell lymphoma) | IC50 = ____
> 100 µM

Form: Entry = CC[C@H](C)[C@H](NC(=O)[C@@H](C)NC(=O)[C@H](CO)NC(=O)[C@H](CC(C)C)NC(=O)[C@@H](N)Cc1ccccc1)C(=O)N[C@H](C(=O)NCC(=O)N[C@@H](CCSC)C(=O)N[C@@H](CC(C)C)C(=O)NCC(=O)N[C@@H](CCCCN)C(=O)N[C@@H](CC(C)C)C(=O)N[C@@H](Cc1ccccc1)C(N)=O)C(C)C [compound 2, F-L-S-a-I-V-G-M-L-G-K-L-F] (H-FLS[dA]IVGMLGKLF-NH2) | System = DoHH2 cells (B-cell lymphoma) | IC50 = ____
> 100 µM

###

# System: NIH-3T3 murine fibroblast cell line
# protocol-summary: MTT cytotoxicity assay, 3T3 cells
# Type: cell-based, mouse
Where a SMILES comes first, the peptide text is derived from it. [ ]: non-standard residue; d: D form.
assay-endpoint: Cytotoxicity against 3T3 cell line (in words)

>>> observed_measurement("CC[C@H](C)[C@H](NC(=O)[C@@H](C)NC(=O)[C@H](CO)NC(=O)[C@H](CC(C)C)NC(=O)[C@@H](N)Cc1ccccc1)C(=O)N[C@H](C(=O)N[C@H](C)C(=O)N[C@@H](CCSC)C(=O)N[C@@H](CC(C)C)C(=O)N[C@H](C)C(=O)N[C@@H](CCCCN)C(=O)N[C@@H](CC(C)C)C(=O)N[C@@H](Cc1ccccc1)C(N)=O)C(C)C [compound 6, F-L-S-a-I-V-a-M-L-a-K-L-F] (H-FLS[dA]IV[dA]ML[dA]KLF-NH2)")
"inactive"
>>> observed_measurement("CC[C@H](C)[C@H](NC(=O)CNC(=O)[C@H](CO)NC(=O)[C@H](CC(C)C)NC(=O)[C@@H](N)Cc1ccccc1)C(=O)N[C@H](C(=O)N[C@H](C)C(=O)N[C@@H](CCSC)C(=O)N[C@@H](CC(C)C)C(=O)NCC(=O)N[C@@H](CCCCN)C(=O)N[C@@H](CC(C)C)C(=O)N[C@@H](Cc1ccccc1)C(N)=O)C(C)C [compound 3, F-L-S-G-I-V-a-M-L-G-K-L-F] (H-FLSGIV[dA]MLGKLF-NH2)")
"inactive"
>>> observed_measurement("CC[C@H](C)[C@H](NC(=O)[C@@H](C)NC(=O)[C@H](CO)NC(=O)[C@H](CC(C)C)NC(=O)[C@@H](N)Cc1ccccc1)C(=O)N[C@H](C(=O)NCC(=O)N[C@@H](CCSC)C(=O)N[C@@H](CC(C)C)C(=O)NCC(=O)N[C@@H](CCCCN)C(=O)N[C@@H](CC(C)C)C(=O)N[C@@H](Cc1ccccc1)C(N)=O)C(C)C [compound 2, F-L-S-a-I-V-G-M-L-G-K-L-F] (H-FLS[dA]IVGMLGKLF-NH2)")
"inactive"

###

# System: H460 cells
# protocol-summary: MTT cytotoxicity assay, H460 cells
# Type: cell-based
# stated-conditions: human, 48 h
Where a SMILES comes first, the peptide text is derived from it. [ ]: non-standard residue; d: D form.
Please respond with reported IC50 for every item in the list.

Entry under review: CC[C@H](C)[C@H](NC(=O)[C@@H](C)NC(=O)[C@H](CO)NC(=O)[C@H](CC(C)C)NC(=O)[C@@H](N)Cc1ccccc1)C(=O)N[C@H](C(=O)N[C@H](C)C(=O)N[C@@H](CCSC)C(=O)N[C@@H](CC(C)C)C(=O)NCC(=O)N[C@@H](CCCCN)C(=O)N[C@@H](CC(C)C)C(=O)N[C@@H](Cc1ccccc1)C(N)=O)C(C)C [compound 5, F-L-S-a-I-V-a-M-L-G-K-L-F] (H-FLS[dA]IV[dA]MLGKLF-NH2) . Reported IC50?
37.3 µM

Entry under review: CC[C@H](C)[C@H](NC(=O)[C@@H](C)NC(=O)[C@H](CO)NC(=O)[C@H](CC(C)C)NC(=O)[C@@H](N)Cc1ccccc1)C(=O)N[C@H](C(=O)N[C@H](C)C(=O)N[C@@H](CCSC)C(=O)N[C@@H](CC(C)C)C(=O)N[C@H](C)C(=O)N[C@@H](CCCCN)C(=O)N[C@@H](CC(C)C)C(=O)N[C@@H](Cc1ccccc1)C(N)=O)C(C)C [compound 6, F-L-S-a-I-V-a-M-L-a-K-L-F] (H-FLS[dA]IV[dA]ML[dA]KLF-NH2) . Reported IC50?
> 100 µM

Entry under review: CC[C@H](C)[C@H](NC(=O)CNC(=O)[C@H](CO)NC(=O)[C@H](CC(C)C)NC(=O)[C@@H](N)Cc1ccccc1)C(=O)N[C@H](C(=O)N[C@H](C)C(=O)N[C@@H](CCSC)C(=O)N[C@@H](CC(C)C)C(=O)NCC(=O)N[C@@H](CCCCN)C(=O)N[C@@H](CC(C)C)C(=O)N[C@@H](Cc1ccccc1)C(N)=O)C(C)C [compound 3, F-L-S-G-I-V-a-M-L-G-K-L-F] (H-FLSGIV[dA]MLGKLF-NH2) . Reported IC50?
> 100 µM

###

# System: MCF-7 human breast cancer cell line
# protocol-summary: MTT cytotoxicity assay, MCF-7 cells
# Assay type: cell-based
# stated-conditions: Homo sapiens, MCF7, 48 h, read-out: Cytotoxicity IC50, MCF-7
assay-endpoint: IC50 (nM)
The response must be a number in nM with no trailing unit.

Form: Entry = COc1cccc2c1C(=O)c1c(O)c3c(c(O)c1C2=O)C[C@@](O)(C(=O)CO)C[C@@H]3O[C@H]1C[C@H](N)[C@H](O)[C@H](C)O1 [Doxorubicin, reference compound] | System = MCF-7 human breast cancer cell line | IC50 = ____
1600

###

# Test system: MCF-7 human breast cancer cell line
# protocol-summary: MTT cytotoxicity assay, MCF-7 cells
# Format: cell-based
# stated-conditions: human, 48 h
Where a SMILES comes first, the peptide text is derived from it. [ ]: non-standard residue; d: D form.
assay-endpoint: pIC50
Quick note: pIC50 values are minus log10 of concentrations in mol/L.

Entry under review: CC[C@H](C)[C@H](NC(=O)[C@@H](C)NC(=O)[C@H](CO)NC(=O)[C@H](CC(C)C)NC(=O)[C@@H](N)Cc1ccccc1)C(=O)N[C@H](C(=O)N[C@H](C)C(=O)N[C@@H](CCSC)C(=O)N[C@@H](CC(C)C)C(=O)N[C@H](C)C(=O)N[C@@H](CCCCN)C(=O)N[C@@H](CC(C)C)C(=O)N[C@@H](Cc1ccccc1)C(N)=O)C(C)C [compound 6, F-L-S-a-I-V-a-M-L-a-K-L-F] (H-FLS[dA]IV[dA]ML[dA]KLF-NH2) . Reported pIC50?
4.58

Entry under review: CC[C@H](C)[C@H](NC(=O)CNC(=O)[C@H](CO)NC(=O)[C@H](CC(C)C)NC(=O)[C@@H](N)Cc1ccccc1)C(=O)N[C@H](C(=O)N[C@H](C)C(=O)N[C@@H](CCSC)C(=O)N[C@@H](CC(C)C)C(=O)NCC(=O)N[C@@H](CCCCN)C(=O)N[C@@H](CC(C)C)C(=O)N[C@@H](Cc1ccccc1)C(N)=O)C(C)C [compound 3, F-L-S-G-I-V-a-M-L-G-K-L-F] (H-FLSGIV[dA]MLGKLF-NH2) . Reported pIC50?
4.65

Entry under review: CC[C@H](C)[C@H](NC(=O)[C@@H](C)NC(=O)[C@H](CO)NC(=O)[C@H](CC(C)C)NC(=O)[C@@H](N)Cc1ccccc1)C(=O)N[C@H](C(=O)N[C@H](C)C(=O)N[C@@H](CCSC)C(=O)N[C@@H](CC(C)C)C(=O)NCC(=O)N[C@@H](CCCCN)C(=O)N[C@@H](CC(C)C)C(=O)N[C@@H](Cc1ccccc1)C(N)=O)C(C)C [compound 5, F-L-S-a-I-V-a-M-L-G-K-L-F] (H-FLS[dA]IV[dA]MLGKLF-NH2) . Reported pIC50?
4.53
